test_context: read-out: Counterscreen IC50; compound added after NaOH stop, 10-point titration
pIC50: −log10 of the molar value.
parameter_measured: pIC50

Reference set (4 entries):
>>> observed_result("Cc1cc(-c2ccc(/N=N/c3ccc4c(S(=O)(=O)O)cc(S(=O)(=O)O)c(N)c4c3O)c(C)c2)ccc1/N=N/c1ccc2c(S(=O)(=O)O)cc(S(=O)(=O)O)c(N)c2c1O")
4.63
>>> observed_result("CN(C)[C@@H]1C(O)=C(C(N)=O)C(=O)[C@@]2(O)C(O)=C3C(=O)c4c(O)cccc4[C@@](C)(O)[C@H]3C[C@@H]12")
"< 4.84"
>>> observed_result("C=C1c2c(Cl)ccc(O)c2C(=O)C2=C(O)[C@]3(O)C(=O)C(C(N)=O)=C(O)[C@@H](N(C)C)[C@@H]3[C@@H](O)[C@H]12")
"< 4.84"
>>> observed_result("Cc1nc(N=Nc2cc(S(=O)(=O)O)c3cc([N+](=O)[O-])cc(S(=O)(=O)O)c3c2)c(COP(=O)(O)O)c(C=O)c1O")
"< 4.54"

Exercise: pIC50 lookup needed for `C=C1c2cccc(O)c2C(=O)C2=C(O)[C@]3(O)C(=O)C(C(N)=O)=C(O)[C@@H](N(C)C)[C@@H]3[C@@H](O)[C@H]12` , thanks.
Solution: < 4.84

Exercise: pIC50 lookup needed for `COc1cc(-c2ccc(/N=N/c3ccc4c(S(=O)(=O)O)cc(S(=O)(=O)O)c(N)c4c3O)c(OC)c2)ccc1/N=N/c1ccc2c(S(=O)(=O)O)cc(S(=O)(=O)O)c(N)c2c1O` , thanks.
Solution: < 4.84

Exercise: pIC50 lookup needed for `O=C(Nc1ccc(C(=O)Nc2ccc(C(=O)Nc3ccc(S(=O)(=O)O)c4cc(S(=O)(=O)O)cc(S(=O)(=O)O)c34)cc2)cc1)Nc1ccc(C(=O)Nc2ccc(C(=O)Nc3ccc(S(=O)(=O)O)c4cc(S(=O)(=O)O)cc(S(=O)(=O)O)c34)cc2)cc1` , thanks.
Solution: < 4.54

Exercise: pIC50 lookup needed for `C[C@H]1c2cccc(O)c2C(=O)C2=C(O)[C@]3(O)C(=O)C(C(N)=O)=C(O)[C@@H](N(C)C)[C@@H]3[C@@H](O)[C@@H]21` , thanks.
Solution: < 4.84

---

log10 Ki tested on Sts-1HP (Homo sapiens, UniProt Q8TF42): recorded values
Sequence (Q8TF42 384-647 limits assumed): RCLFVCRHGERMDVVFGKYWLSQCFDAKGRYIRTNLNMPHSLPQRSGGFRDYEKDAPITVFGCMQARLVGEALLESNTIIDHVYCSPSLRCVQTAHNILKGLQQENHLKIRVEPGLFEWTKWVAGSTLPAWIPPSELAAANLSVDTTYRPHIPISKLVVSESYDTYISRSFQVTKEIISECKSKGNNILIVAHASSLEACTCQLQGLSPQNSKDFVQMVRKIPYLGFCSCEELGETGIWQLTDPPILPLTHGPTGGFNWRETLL
Hi team, quick reminder: these entries are log10 of Ki (µM).

>>> observed_result("C=C1c2cccc(O)c2C(=O)C2=C(O)[C@]3(O)C(=O)C(C(N)=O)=C(O)[C@@H](N(C)C)[C@@H]3[C@@H](O)[C@H]12 [Methacycline]")
2.51
>>> observed_result("C[C@H]1c2cccc(O)c2C(=O)C2=C(O)[C@]3(O)C(=O)C(C(N)=O)=C(O)[C@@H](N(C)C)[C@@H]3[C@@H](O)[C@@H]21 [Doxycycline]")
2.00
>>> observed_result("Nc1c(/N=N/c2ccc(-c3ccc(/N=N/c4cc(S(=O)(=O)O)c5ccccc5c4N)cc3)cc2)cc(S(=O)(=O)O)c2ccccc12 [Congo Red]")
-1.10
>>> observed_result("Cc1cc(-c2ccc(/N=N/c3ccc4c(S(=O)(=O)O)cc(S(=O)(=O)O)c(N)c4c3O)c(C)c2)ccc1/N=N/c1ccc2c(S(=O)(=O)O)cc(S(=O)(=O)O)c(N)c2c1O [Evans Blue]")
-0.41

Now consider the entry below.
Exercise: log10 Ki lookup needed for CN(C)[C@@H]1C(O)=C(C(N)=O)C(=O)[C@@]2(O)C(O)=C3C(=O)c4c(O)cccc4[C@@](C)(O)[C@H]3C[C@@H]12 [Tetracycline] , thanks.
Solution: 2.30

---

study_system: Sts-1HP Y596L (Homo sapiens, UniProt Q8TF42, Y607L)
test_protocol: pNPP inhibition analysis of Sts-1HP mutant
Reported pKi values for the following molecules.
# reply with the number alone; pKi is -log10 of concentration in mol/L

>>> observed_result("C[C@H]1c2cccc(O)c2C(=O)C2=C(O)[C@]3(O)C(=O)C(C(N)=O)=C(O)[C@@H](N(C)C)[C@@H]3[C@@H](O)[C@@H]21")
3.31

Now consider the entry below.
Exercise: pKi lookup needed for `Nc1c(/N=N/c2ccc(-c3ccc(/N=N/c4cc(S(=O)(=O)O)c5ccccc5c4N)cc3)cc2)cc(S(=O)(=O)O)c2ccccc12` , thanks.
Solution: 6.03

---

study_system: UniProt:P29350
Sequence (P29350 whole entry): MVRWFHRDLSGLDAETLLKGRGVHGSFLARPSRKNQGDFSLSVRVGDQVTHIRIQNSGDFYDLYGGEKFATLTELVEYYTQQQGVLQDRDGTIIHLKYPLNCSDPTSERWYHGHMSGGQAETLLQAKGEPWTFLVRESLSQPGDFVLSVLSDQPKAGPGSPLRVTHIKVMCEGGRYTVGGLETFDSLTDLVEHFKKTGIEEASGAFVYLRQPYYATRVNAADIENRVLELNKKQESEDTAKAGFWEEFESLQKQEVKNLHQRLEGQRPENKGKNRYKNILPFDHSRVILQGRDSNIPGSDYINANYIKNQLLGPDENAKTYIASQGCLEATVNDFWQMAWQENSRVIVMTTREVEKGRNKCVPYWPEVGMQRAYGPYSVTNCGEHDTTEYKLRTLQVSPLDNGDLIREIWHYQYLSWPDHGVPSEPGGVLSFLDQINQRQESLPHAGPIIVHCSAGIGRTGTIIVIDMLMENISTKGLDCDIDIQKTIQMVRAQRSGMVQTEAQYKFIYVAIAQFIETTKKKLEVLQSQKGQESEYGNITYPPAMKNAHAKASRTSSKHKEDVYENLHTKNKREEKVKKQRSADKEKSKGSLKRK
parameter_measured: pKi
# reply with the number alone; pKi is -log10 of concentration in mol/L

Exercise: pKi lookup needed for Nc1c(/N=N/c2ccc(-c3ccc(/N=N/c4cc(S(=O)(=O)O)c5ccccc5c4N)cc3)cc2)cc(S(=O)(=O)O)c2ccccc12 [Congo Red] , thanks.
Solution: 5.41

---

study_system: PTP-1B (Homo sapiens)
Sequence (P18031 1-435): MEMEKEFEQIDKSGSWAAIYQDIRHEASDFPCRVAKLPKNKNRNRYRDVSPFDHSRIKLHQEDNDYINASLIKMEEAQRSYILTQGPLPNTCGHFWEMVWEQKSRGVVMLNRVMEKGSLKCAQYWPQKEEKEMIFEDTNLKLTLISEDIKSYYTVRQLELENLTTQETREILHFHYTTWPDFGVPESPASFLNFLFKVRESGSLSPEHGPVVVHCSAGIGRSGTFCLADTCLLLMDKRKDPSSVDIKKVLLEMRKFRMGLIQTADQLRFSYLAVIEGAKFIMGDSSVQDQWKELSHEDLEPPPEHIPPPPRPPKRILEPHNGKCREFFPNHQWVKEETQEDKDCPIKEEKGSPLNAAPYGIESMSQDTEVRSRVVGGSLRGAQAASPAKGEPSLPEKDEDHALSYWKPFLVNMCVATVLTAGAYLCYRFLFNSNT
test_protocol: pNPP inhibition analysis, selectivity
Format: biochemical
parameter_measured: Ki (µM)
A number alone suffices; assume µM.

Exercise: Ki lookup needed for `Nc1c(/N=N/c2ccc(-c3ccc(/N=N/c4cc(S(=O)(=O)O)c5ccccc5c4N)cc3)cc2)cc(S(=O)(=O)O)c2ccccc12` , thanks.
Solution: 1.47
